# Test system: MS2 coat protein
# experiment_description: apparent KD of MS2 coat protein; designed switch direction (-1 OFF switch, 1 ON switch): 1; higher = weaker reporter binding
# conditions_used: Eterna round: R95; input ligand: microRNA oligo, concentration not stated
result_type: apparent KD of MS2 coat protein (nM)

chain_sequence	result_type	scale_unit	measurement
UAGUACAUGCUUUUUGCCCGUCUUAGAUAACAUGAGGAUCACCCAUGUAAGGUGAAAGUUAUAUAGUGGAGGAAGAU [JR_SHM208A_Sub055] (puzzle: Sensor for hsa-mir-208a)	apparent KD of MS2 coat protein	nM	360
GUUAUACAUGAGGAUCACCCAUGUCAAUGUAGUCGAGGAUAUGGGUAGCCAUGAGGCGUACUAGAAGGCGAGGAGU [JL-ss1-3.19 ViennaUCT mod] (puzzle: Same State 1)	apparent KD of MS2 coat protein	nM	68.8
UGUAAACAUGAGGAUCACCCAUGUUUUUUCAUGGGAGGAUAUCUGAGUUAAGUAUAUUAAGGAGAAGGCCUUGUGU [× ×•×ª×• ×ž×“×™× ×” × ×—×ª-03] (puzzle: Same State 1)	apparent KD of MS2 coat protein	nM	18.7
UUUAAACAUGAGGAUCACCCAUGUUUUUUCAUGGGAGGAUAUCUAAGUUAAUUAUAUUAAGGAGAAGGCCUAUUUU [× ×•×ª×• ×ž×“×™× ×” × ×—×ª-05] (puzzle: Same State 1)	apparent KD of MS2 coat protein	nM	48.8
AUUAAACAUGAGGAUCACCCAUGUCAACAAAGUCGAGGAUAUGGGCAAUUAAAAUAAGAACCAGAAGGCGAAUAAU [salish99_ss1_r3_061] (puzzle: Same State 1)	apparent KD of MS2 coat protein	nM	224
GGUCCAGCCUGAGCUGGACGAAAGUAUGUACAUGAGGAUCACCCAUGUCAUGUAUAAGUUUUUUGUUUGUCUUGAAA [Sensorship 2 - Jieux - Sensor for hsa-mir-208a] (puzzle: Sensor for hsa-mir-208a)	apparent KD of MS2 coat protein	nM	11.2
AGUCCAGCCUGAGCUGGACAAAAGCAUGUACAUGAGGAUCACCCAUGUCAUGUACAAGCUUUUUGUUCGUCUUAAAA [Zipper 46 - 12] (puzzle: Sensor for hsa-mir-208a)	apparent KD of MS2 coat protein	nM	14.8
UGUAUACAUGAGGAUCACCCAUGUCAACGUAGUCGAGGAUAUGGGCAGCCGUGAGGCGUACCAGAAGGCGAAGAGG [JL-ss1-3.05 ViennaUCT mod] (puzzle: Same State 1)	apparent KD of MS2 coat protein	nM	95.3
UAGCGCUGUCGAGAGGAUAUGCGGUGAUGGACAUGAGGAUCACCCAUGUUAGCGAUAGCAUUACGGUAGAAGGCUCUACAGCUGC [salish99_ss2_r3_092] (puzzle: Same State 2)	apparent KD of MS2 coat protein	nM	23.2
UAGUUACUAUCUCAGGAUAUCAUGUCAAAGACAUGAGGAUCACCCAUGUACCAGGAAACUGGUUAUGAGAAGGGAGAUAGUAACU [Mat - Same State 2 - Mod - D55] (puzzle: Same State 2)	apparent KD of MS2 coat protein	nM	104
AGAGAACAUGAGGAUCACCCAUGUGGGAGAAACAUAGGAUAUAGGAGAGAGAGGGAGGAGCUAGAAGGAUGAUGGA [JR_SS1_Sub082] (puzzle: Same State 1)	apparent KD of MS2 coat protein	nM	91.1
UACAAUCUAUCUGAGGAUAUCAUGAUUUAAACAUGAGGAUCACCCAUGUGCAGGAAAACUGCAUAUGAGAAGGCAGAUAGAUUGU [salish99_ss2_r3_063] (puzzle: Same State 2)	apparent KD of MS2 coat protein	nM	297
AGUCCAGCCUGAGCUGGACAAAAGCAUGUACAUGAGGAUCACCCAUGUCAUGUACAAGCUUUUUGCUCGUCUUAUAA [Mat - hsa-mir-208a - Mod of JL - D25] (puzzle: Sensor for hsa-mir-208a)	apparent KD of MS2 coat protein	nM	14.9
AUAAGGCAAGCUUUUUUCUCGUUGUGUAAACAUGAGGAUCACCCAUGUGCCCACCCUGGAUCUUUGGAUCGCAGAAC [Mais] (puzzle: Sensor for hsa-mir-208a)	apparent KD of MS2 coat protein	nM	17.5
UCCUCAGUUUCACAGGAUAUGCGCUGAGUCACAUGAGGAUCACCCAUGUAGACGGAAAAUGUCGGGCAGAAGGGUGAGGCAUAAA [Diretibe] (puzzle: Same State 2)	apparent KD of MS2 coat protein	nM	117
AGAUAGUGUGGAAAGGAUAUACGGUUGAGGACAUGAGGAUCACCCAUGUAGUAGAGGAAGGAAGGGUAGAAGGUUCAGGAUUGAU [JR_SS2_Sub018] (puzzle: Same State 2)	apparent KD of MS2 coat protein	nM	43.1
GGAGCCGGCACUGAGGAUAUUCAUAUUAAAACAUGAGGAUCACCCAUGUAGGCCAGAAGGCCUUGGGAGAAGGCGGGUCGACUCG [Diqureveri - 1] (puzzle: Same State 2)	apparent KD of MS2 coat protein	nM	523
GUGGUGUAGAUACAGGAUAUGUUGCUCGUAACAUGAGGAUCACCCAUGUAUAUAUGAGAUUAAAUGCAGAAGGGUGCACACCACG [Mat - Same State 2 - Mod of UCT - D76] (puzzle: Same State 2)	apparent KD of MS2 coat protein	nM	18.9
AGCGCGGUCUCGCAGGAUAUCCACAAUCCUACAUGAGGAUCACCCAUGUCGCUGCAGGAUAUUAGGGAGAAGGGUGAUGCCGCGC [Riorge] (puzzle: Same State 2)	apparent KD of MS2 coat protein	nM	25.2
GGUCCAGCCUGAGCUGGACAAAAGCAUGUACAUGAGGAUCACCCAUGUCAUGUACAAGCUUUUUGCUCGUCUAAAGG [Mat - hsa-mir-208a - 92] (puzzle: Sensor for hsa-mir-208a)	apparent KD of MS2 coat protein	nM	23.8
